# Test system: Abp1 PPIs
# PROTOCOL_TEXT: DHFR-PCA of Abp1 SH3-swapped baits (Fig. 2B-D, S2C, S2F);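 also: Euclidean distance between DHFR-PCA score profiles of the baits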
# Format: cell-based, Saccharomyces cerevisiae
# EXPERIMENTAL_CONTEXT: distance to Abp1 bait with NBP2 SH3; sheet Fig2C
PROPERTY_MEASURED: Protein-protein interaction distance between Abp1 SH3-swapped baits, to NBP2
Write no unit; give the number alone.

-- ask Indicate the recorded Protein-protein interaction distance between Abp1 SH3-swapped baits, to NBP2 value for this molecule: SHO1 (protein, UniProt P40073 1-367, looked up) High osmolarity signaling …: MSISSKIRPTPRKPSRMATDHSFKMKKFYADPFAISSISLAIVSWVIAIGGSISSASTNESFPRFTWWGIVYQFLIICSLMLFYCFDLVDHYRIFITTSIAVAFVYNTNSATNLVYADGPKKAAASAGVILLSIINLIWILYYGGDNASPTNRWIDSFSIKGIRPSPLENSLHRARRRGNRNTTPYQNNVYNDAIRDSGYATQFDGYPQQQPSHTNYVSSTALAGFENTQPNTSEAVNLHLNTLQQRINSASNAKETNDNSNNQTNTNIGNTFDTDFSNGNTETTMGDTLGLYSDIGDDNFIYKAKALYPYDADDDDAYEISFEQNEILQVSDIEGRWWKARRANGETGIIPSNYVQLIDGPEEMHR
-- reply 13.02

Provenance of the data: paper PMC7954794
